Measured values drawn from patent US20210198277A1 for this set.

Target: human EHMT2 913-1193 (Homo sapiens, UniProt Q96KQ7)
Construct: recombinant purified human EHMT2 913-1193, Viva; purchased Viva
Sequence (Q96KQ7 913-1193): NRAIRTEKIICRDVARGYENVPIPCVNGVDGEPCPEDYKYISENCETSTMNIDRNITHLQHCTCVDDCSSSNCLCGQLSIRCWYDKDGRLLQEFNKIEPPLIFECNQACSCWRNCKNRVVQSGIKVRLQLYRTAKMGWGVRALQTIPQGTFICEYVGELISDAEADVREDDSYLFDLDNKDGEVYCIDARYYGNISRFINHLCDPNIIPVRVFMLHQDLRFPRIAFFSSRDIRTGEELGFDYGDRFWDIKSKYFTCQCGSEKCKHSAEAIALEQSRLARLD
Test: EHMT2 enzyme assay on histone peptide substrate (EHMT2 PEP)
Type: biochemical
Conditions: recombinant human EHMT2 913-1193, histone H3 1-15 peptide, balanced conditions; read-out: EHMT2 PEP (IC50 μM)
# IC50 annotations

Query: Quick check: IC50 of CNc1ccnc(Nc2ccc(OC)c(OCc3nnc(C4CC4)[nH]3)c2)n1 [Compound 478] ?
Response: > 10 µM

Query: Next up: CNc1nc(C2CCCCC2)c2cc(OC)c(OCCCN3CCCC3)cc2n1 [Compound 523]
Response: 1 to 10 µM

Query: Next up: CNc1cc(C)nc(Nc2ccc(OC)c(OC[C@H]3CCN(C4CC4)C3)c2)n1 (single isomer, unassigned) [Compound 482]
Response: 0.1 to 1 µM

Query: Next up: CNc1cc(C)nc(Nc2ccc(OC)c(OC[C@@H]3CCNC3)c2)n1 [Compound 600]
Response: < 0.1 µM

Next:
Query: Quick check: IC50 of CNc1cc(C)nc(Nc2ccc(OC)c(OC[C@@H]3CCN(C4CC4)C3)c2)n1 (single isomer, unassigned) [Compound 481] ?
Response: < 0.1 µM

Query: Next up: CCCC1(Nc2nccc(NC)n2)CCCNC1 (stereo not drawn) [Compound 544]
Response: > 10 µM

Query: Next up: CNc1cc(C)nc(Nc2ccc(OC)c(OC[C@@H]3CCN(C4CCC4)C3)c2)n1 [Compound 563]
Response: < 0.1 µM

Query: Next up: CCN1CC(COc2cc(Nc3cc(NC)nc(C)c3F)ncc2OC)C1 [Compound 567]
Response: 1 to 10 µM

Query: Next up: CCN1CC[C@@H](COc2cc(Nc3nc(C)cc(NC)n3)ccc2OC)C1 [Compound 571]
Response: < 0.1 µM
